self-cleavage values, listed per item
B1: Hairpin Ribozyme (parent)
chain: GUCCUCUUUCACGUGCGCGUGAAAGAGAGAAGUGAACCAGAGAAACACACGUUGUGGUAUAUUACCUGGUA

# Variants of: B1
# runDescription: self-cleavage, relative activity (ratio to wild type); higher = more cleavage; co-transcriptional
measuredMetric: self-cleavage

- changes: "G29A G57C"
  experimentalValue: 0.109
- changes: "U8A U20G"
  experimentalValue: 0.711
- changes: "U2A U14G"
  experimentalValue: 0.235
- changes: "C4A C37A"
  experimentalValue: 0.159
- changes: "U9C U53G"
  experimentalValue: 1.13
- changes: "C3A U63G"
  experimentalValue: 0.174
- changes: "C6G C46U"
  experimentalValue: 0.143
- changes: "U5C A11C"
  experimentalValue: 0.764
- changes: "G34C A43G"
  experimentalValue: 0.0982
- changes: "G19U C38G"
  experimentalValue: 0.225
- changes: "G34C C37G"
  experimentalValue: 0.781
- changes: "G54C A59G"
  experimentalValue: 0.0783
- changes: "U62C A71G"
  experimentalValue: 0.236
- changes: "C38U U60G"
  experimentalValue: 0.431
- changes: "A24U G69U"
  experimentalValue: 0.192
- changes: "G17A G56A"
  experimentalValue: 0.142
- changes: "G29C A49G"
  experimentalValue: 0.178
- changes: "G25U G27A"
  experimentalValue: 0.131
- changes: "G25U A35G"
  experimentalValue: 0.656
- changes: "C12G G56U"
  experimentalValue: 0.124
- changes: "G17U A28G"
  experimentalValue: 1.02
- changes: "A23C G69C"
  experimentalValue: 0.244
